# experimental protocol: yeast display, Sf9 membrane polyspecificity reagent, FACS + sequencing; frameworks hold sequencing errors
measurement label: polyreactivity (PSR sort gate)

ordered_residues=QVQLVESGGGLVQAGGSLRLSCAASGRIFAQNAMGWYRPAPGKERELVAAISWGGGGTYYADSVKGRFTISRDNAKNTVYLQMNSLKPEDTAVYYCAADSPGFGAWDRYEYWGQGTQVTVSS measurement_label="polyreactivity (PSR sort gate)" observed_result="low polyreactivity"
ordered_residues=QVQLVESGGGLVQAGGSLRLSCAASGRTFYTYAMGWYRQAPGKDREFVAVISGRGARTYYADSVKGRFTISRDNAKNTVYLQMNSLKPEDTAVYYCAAVPPRKDYQHMDYWGQGTQVTVSS measurement_label="polyreactivity (PSR sort gate)" observed_result="low polyreactivity"
ordered_residues=QVQLVESGGGLVQAGGSLRLSCAASGSIFKYNAMGWYRQAPGKERELVAAIRWSGVGTRYADSVKGRFTISRDNAKNTVYLQMNSLKPEDTAVYYCAADVTKYHDGHEYDYWGQGTQVTVSS measurement_label="polyreactivity (PSR sort gate)" observed_result="low polyreactivity"
ordered_residues=QVQLVESGGGLVQAGGSLRLSCAASGNTFYGYAMGWYRQAPGKERELVASITLSGDSTYYADSVKGRFTISRDNAKKTVYLQMNSLKPEDTAVYYCAGVYTYPLGYYHYTYDYWGQGTQVTVSS measurement_label="polyreactivity (PSR sort gate)" observed_result="low polyreactivity"
ordered_residues=QVQLVESGGGLFQAGGSLRISCAASGFIFSFYAMGWYRQAPGKERELVAAITSSGATTYYADSVKGSFTISRDNAKNTVYLQMNSLKPEDTAVYYCNAVYRRDTGYYRYYYWGQGTQVTVSS measurement_label="polyreactivity (PSR sort gate)" observed_result="high polyreactivity"

For every item below, please supply its polyreactivity (PSR sort gate).
1. QVQLVESGGGLVQAGGSLPLSCAASGRTIYRYAMGSYRQAPGKERELDAAIRRSGDSTYYADSVKGRFTISRDIAKKTVYLQMNSLKPEDTAVYYCNAVASGRTYDYWGQGTQVTVSS
2. QVQLVQSGGGLVQAGGRLRLSSAASGRTFEPNAMGWYRQAPGKERELVAAITNGGSTSYADSVKGRFTISRDNAKNSVYLQMNSLKPEDTAVYDFAGDLGRNLLHTYYYWGQGTQVTVSS
3. QVQLVESGGGLVQAGGSLRLSCAASGYISFGYAMGWYRQAPGKEREFVAAISVGGGTTYYADSVKGRFTISRDNAKNTVYLQMNSLKPEDTAVYYCAVGKYNYRGSWDYYWGQGTQVTVSS
4. QVQLVESGGGLVQAGGSLRLSCAASGNTFQSYAMGRYRQAPGKEREFVAAIRQSGGSTYYADSVKGRFTISRDTAKYTVYLQMNSLKPEATAVYYCAAYFTPRKYKPYDYWGLGTQVTVSS
5. QVQRVESGGGLVQAGGRLRLSCAASGRTFDNYAMGWYIQAPGKERELVSAISGGGGTNYADSVKGRFTISPDNAKNTVYLQMNSLKPEDTAVYYCAADTNGYEFDYWGQGTQVTVSS
6. QVQLVESGGGLVQAGGSLRLSCAASGSIFGRNAMGWSRQAPGNERELVARISYIGGSTYYADSVKARFTISRDNAKTTVYLQMNSLKPEDTAVYYCAKRYGFRYKRMDYWGQGTQVTVSS

1. high polyreactivity
2. low polyreactivity
3. high polyreactivity
4. high polyreactivity
5. low polyreactivity
6. low polyreactivity
